system: PC-3 prostate; experiment: NCI tumour cell line growth inhibition, 48 h
TGI values, listed per item

# MOLECULE, RESULT UNITS, RELATION SYMBOL, TGI
rows = [
    ("O=C1c2ccccc2-c2c1c1ccc([N+](=O)[O-])cc1c(=O)n2CCCBr", "µM", ">", 100),
    ("Cc1cc(C)c(C2=NOC(c3ccccc3)(c3cc(=O)n(-c4ccccc4)s3)O2)c(C)c1 (stereo not given)", "µM", ">", 100),
    ("O=c1oc2ccccc2c(Nc2ccc3c(c2)S(=O)(=O)c2ccccc2O3)c1[N+](=O)[O-]", "µM", "=", 62.1),
    ("COc1ccc(NC2Oc3cc4c(cc3C(c3cccc(OC)c3OC)C2C)OCO4)cc1 (stereo not given)", "µM", "=", 51.3),
    ("CC(C)(C)c1n[nH]c(=S)n(/N=C/c2ccc(F)c(Oc3ccccc3)c2)c1=O", "µM", ">", 100),
]

###

system: EKVX NSCLC; assay: NCI tumour cell line growth inhibition, 48 h
TGI values, listed per item

# COMPOUND, TGT, TGI
rows = [
    ("COC(=O)C1CCC(=O)N1CN(C(C)=O)c1ccccc1 (centres undefined)", "EKVX NSCLC", "> 100 µM"),
    ("COC(=O)[C@@H]1CN(C(=O)CCc2ccccc2)C(=O)N1C(=O)OCc1ccccc1", "EKVX NSCLC", "> 100 µM"),
    ("CCC1(CC)CC(=NNS(=O)(=O)c2ccc(C)cc2)C1", "EKVX NSCLC", "> 100 µM"),
    ("NNC(=O)c1ccc(-n2nnc(C(=O)NN)c2C(=O)NN)cc1", "EKVX NSCLC", "> 100 µM"),
    ("C/C(=N\\Nc1nc2ccccc2s1)c1ncccn1", "EKVX NSCLC", "4.54 µM"),
    ("CCCCCCc1cc(C(=O)Nc2cccc(C(F)(F)F)c2)nc(N)n1", "EKVX NSCLC", "> 100 µM"),
    ("O=C(c1ccccc1)c1ccc(COc2ccc(C(c3c(O)c4ccccc4oc3=O)c3c(O)c4ccccc4oc3=O)cc2)cc1", "EKVX NSCLC", "40 µM"),
    ("CC(C)[C@@H]1NC(=O)[C@H]2N=C(O[C@@H]2C)[C@@H]2CCCN2C(=O)[C@H](Cc2ccccc2)NC(=O)[C@@H]2CSC(=N2)[C@@H](Cc2ccccc2)NC(=O)[C@@H]2CSC1=N2", "EKVX NSCLC", "> 50 µM"),
    ("COC(=O)c1c2n(c3ccccc13)C[C@H]1OC(C)(C)O[C@@H]21", "EKVX NSCLC", "> 100 µM"),
]

###

system: SF-268 CNS; assay: NCI tumour cell line growth inhibition, 48 h

# COMPOUND, RESULT UNITS, RELATION SYMBOL, TGI
data = [
    ("C[C@]12CC[C@H]3[C@@H](CCC4=CC(=O)CC[C@@H]43)[C@@H]1CC[C@@H]2OC(=O)CCc1ccccc1", "µM", "=", 29.6),
    ("CC(CN1CCN(CCOCCO)CC1)CN1c2ccccc2Sc2ccc(Cl)cc21 (stereo not given)", "µM", "=", 18.4),
    ("CN(C)c1ccc(/C=C\\c2cccc[n+]2C)cc1", "µM", ">", 100),
    ("O=C(NCCCCCCCCNC(=O)c1cc(-c2ccccc2)nc2ccccc12)c1cc(-c2ccccc2)nc2ccccc12", "µM", ">", 100),
    ("CC(=O)OCC(OC(C)=O)C(OC(C)=O)C(C=NN(C(C)=O)S(=O)(=O)c1ccc(/C=C2\\NC(=O)NC2=O)cc1)OC(C)=O (stereo not given)", "µM", ">", 100),
]

###

TGI values, listed per item
test system: HL-60(TB) leukemia; assay: NCI tumour cell line growth inhibition, 48 h
READOUT TYPE: TGI

# MOLECULE, TGT, READOUT TYPE, ASSAY VALUE
measured = [
    ("COc1ccc(-c2c(N)n(-c3nc4ccccc4s3)c(=O)c3cc([N+](=O)[O-])ccc23)cc1", "HL-60(TB) leukemia", "TGI", "> 100 µM"),
    ("C[C@]12CCC3[C@@H](CC[C@@H]4c5nonc5CC[C@]34C)C1CCC(=O)N2 (stereo not given in full)", "HL-60(TB) leukemia", "TGI", "> 100 µM"),
    ("COC(=O)C1CC2(CCC1=O)Cc1ccccc1C2=O (stereo not given)", "HL-60(TB) leukemia", "TGI", "> 100 µM"),
    ("O=C(O)C1(P(=O)(O)O)CC1", "HL-60(TB) leukemia", "TGI", "> 100 µM"),
    ("C=C1CC2OC2(C(=O)O[C@H]2CCC3[C@@H]4CCC5=CC(=O)CC[C@]5(C)C4CC[C@@]32C)C1=O (stereo not given in full)", "HL-60(TB) leukemia", "TGI", "3.93 µM"),
]

###

test system: TK-10 renal; assay: NCI tumour cell line growth inhibition, 48 h; in the data active = GI50 below about 0.43 µM; inactive = the rest
Labels: 1 = active, 0 = inactive

# COMPOUND, ASSIGNED CLASS
rows = [
    ("Cn1c2c(cc(S(=O)(=O)c3ccccc3)c1=O)CCc1c-2cnn1-c1ccc(Cl)cc1", 0),
    ("CCN=C1C=CC(=C(c2ccc(N)cc2)c2ccc(N(CC)CC)c(C)c2)C=C1", 1),
    ("Cc1cc2c3ccc(C)[n+](C)c3ccc2n1C", 0),
    ("CCN1CCC(CCOC)(CN2c3ccccc3Sc3ccc(Cl)cc32)C1 (stereo not given)", 0),
    ("COc1cccc(C=Nc2cc(C)ccn2)c1O.COc1cccc(C=Nc2cc(C)ccn2)c1O.[Cu]", 0),
    ("Cc1ccc(C2=NOC3=c4ccccc4=CSC3=C2c2ccc([N+](=O)[O-])cc2)cc1", 0),
    ("N#Cc1c(N/N=C/c2c(Cl)cccc2Cl)nc(N)nc1N1CCOCC1", 0),
    ("COc1ccc(-c2cc(-c3ccccc3)nc(SCCCC(=O)NO)n2)cc1", 1),
    ("CCCn1c(C)nc2c1C(=O)c1ccccc1C2=O", 0),
    ("CC(C)(C)c1n[nH]c(=S)n(/N=C/c2ccc(F)c(Oc3ccccc3)c2)c1=O", 0),
]

###

test system: UACC-257 melanoma; test: NCI tumour cell line growth inhibition, 48 h
TGI values, listed per item
READOUT TYPE: TGI

# COMPOUND, ASSAY VALUE
records = [
    ("CCCn1c(C)nc2c1C(=O)c1ccccc1C2=O", "49 µM"),
    ("COc1ccc(-c2cc(-c3ccccc3)nc(SCCCC(=O)NO)n2)cc1", "8.34 µM"),
    ("COc1ccc(NS(=O)CCCc2ccccc2)cc1 (centres undefined)", "> 100 µM"),
    ("Cc1cc(=O)[nH]c(NN2C(Cl)C(=O)C2c2ccc(Cl)cc2)n1 (centres undefined)", "> 55.1 µM"),
    ("O=C(O)C/C=C/CC(=O)O", "> 100 µM"),
    ("CC1C(c2ccccc2)OP(=O)(OC(C#N)c2ccccc2)N1C (centres undefined)", "> 100 µM"),
    ("CC1CC[C@@H](C(C)C)[C@H](Oc2nnc(C3OC(CO)C(O)C3O)o2)C1 (some centres undefined)", "> 100 µM"),
    ("CC12CCC(C(=O)OC1=O)C(C)(C)O2 (centres undefined)", "> 100 µM"),
    ("O=C(NCCCCCCCCNC(=O)c1cc(-c2ccccc2)nc2ccccc12)c1cc(-c2ccccc2)nc2ccccc12", "> 100 µM"),
    ("COc1ccc(C(OCC2OC(n3ccc(NC(=O)c4ccccc4)nc3=O)C(O)C2O)(c2ccccc2)c2ccccc2)cc1 (centres undefined)", "21.1 µM"),
    ("CN(C)c1ccc(/C=C\\c2cccc[n+]2C)cc1", "> 100 µM"),
    ("CC(=O)OCC(OC(C)=O)C(OC(C)=O)C(C=NN(C(C)=O)S(=O)(=O)c1ccc(/C=C2\\NC(=O)NC2=O)cc1)OC(C)=O (centres undefined)", "> 100 µM"),
    ("Cc1ccc(NC(=O)/C=C/c2ccccc2)c(C(N)=O)c1", "> 95.3 µM"),
    ("C=Cc1c(C)c(OC)cc2c1Oc1ccc(OC)c(C)c1CC2", "> 100 µM"),
]

###

test system: NCI-H460 lung; assay: NCI tumour cell line growth inhibition, 48 h; in the data active = GI50 below about 0.43 µM; inactive = the rest
Labels: active, inactive

# MOL, ASSIGNED CLASS
records = [
    ("COc1cccc(C=Nc2cc(C)ccn2)c1O.COc1cccc(C=Nc2cc(C)ccn2)c1O.[Cu]", "inactive"),
    ("c1ccc2c(c1)c(NCCCCN1CCCCC1)cc1c3ccccc3c(NCCCCN3CCCCC3)cc21", "inactive"),
    ("CN(C)c1ccc(/C=C\\c2cccc[n+]2C)cc1", "inactive"),
    ("O=C1C(=O)c2c(nc3ccc(Cl)cn23)-c2ccccc21", "inactive"),
    ("O=C(/C(=C/c1ccc([N+](=O)[O-])cc1)c1ccccc1)c1ccccc1", "inactive"),
    ("Cc1cc(NCc2cc(Nc3ccnc4cc(Cl)ccc34)ccc2F)nc(N2CCCC2)n1", "inactive"),
    ("O=C1c2c(c3c4ccccc4[nH]c3c3ccc4ccccc4c23)C(=O)N1CCN1CCCCC1", "active"),
    ("CCCn1c(C)nc2c1C(=O)c1ccccc1C2=O", "inactive"),
    ("Clc1cc(Cl)c(OCC#CI)cc1Cl", "inactive"),
]
